tested on: Methionine-dependent, mer^+ tumor cells; assay: Cytotoxicity of BCNU (summary); format: cell-based; conditions: Homo sapiens, cultured in MET^- HCY^+
quantity.kind: IC50

>  <test.smiles>
O=NN(CCCl)C(=O)NCCCl

>  <quantity.kind>
IC50

>  <measurement>
5 to 10 µM

$$$$

----------
Test system: NIH-3T3
Assay: Cytotoxicity of BCNU
Type: cell-based
Conditions: Mus musculus, NIH3T3; NIH-3T3, control mer+, methionine independent; MET^+ HCY^- culture; 1 h BCNU, 4 days; read-out: IC50 (MET)
Method: The cytotoxicity of BCNU on cultured cells in MET^+ HCY^+ and MET^- HCY^+ was measured by a modification of the method of Branch et. al. (1993) as follows: methionine-dependent cells were seeded and cultured in MET^+ HCY^- in 35 mm petri dishes until they were nearly confluent. […] At that time cells were trypsinized and counted using a Coulter-Counter (Coulter Electronics, Hialeah Fla.). […]
pIC50: −log10 of the molar value.

>  <compound>
O=NN(CCCl)C(=O)NCCCl [BCNU, 1,3-bis (2-chloroethyl)-1-nitrosourea]

>  <pIC50>
4.46

$$$$
